TESTED ON: T1, human angiopoietin-2 (human, UniProt O15123 19-496, limits assumed)
T1 sequence (looked up): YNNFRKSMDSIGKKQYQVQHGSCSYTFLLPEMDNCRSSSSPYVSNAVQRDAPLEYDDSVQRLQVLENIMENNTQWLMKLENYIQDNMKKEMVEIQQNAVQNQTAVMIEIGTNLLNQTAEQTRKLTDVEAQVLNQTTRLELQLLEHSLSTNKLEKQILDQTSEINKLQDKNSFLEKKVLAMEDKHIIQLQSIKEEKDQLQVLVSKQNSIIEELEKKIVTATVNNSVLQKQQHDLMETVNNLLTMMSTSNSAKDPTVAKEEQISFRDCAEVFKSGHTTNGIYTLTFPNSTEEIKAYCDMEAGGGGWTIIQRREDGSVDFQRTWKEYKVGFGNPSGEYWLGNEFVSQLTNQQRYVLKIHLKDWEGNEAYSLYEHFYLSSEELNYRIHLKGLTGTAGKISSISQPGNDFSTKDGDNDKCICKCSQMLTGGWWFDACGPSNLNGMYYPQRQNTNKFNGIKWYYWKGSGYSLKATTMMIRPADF
PROTOCOL DETAILS: cell-based or functional assay
READOUT LABEL: IC50 mean, LEC proliferation assay (CellTiter-Glo) (nM)
// units = nM; emit number, no label

Before answering, review these 3 worked examples.
BINDER | READING
hNGAL lipocalin mutein SEQ ID NO: 9 (designed binder, Mutein of mature hNGAL; Biotinylated with NHS-PEG4-Biotin for the SPR assay) QDSTSDLIPAPPLSKVPLQQNFQDNQFHGKWYVVGHAGNYILREDKDPGKMWATIYELKEDKSYDVTEVSFGPKKCNYRIWTFVPGSQPGEFTLGGIKSPPGGTSTLVRVVSTNYNQHAMVFFKHVLQNREFFEITLYGRTKELTSELKENFIRFSKSLGLPENHIVFPVPIDQCIDGSAWSHPQFEK | 0.142
hNGAL lipocalin mutein SEQ ID NO: 11 (designed binder, Mutein of mature hNGAL; Biotinylated with NHS-PEG4-Biotin for the SPR assay) QDSTSDLIPAPPLSKVPLQQNFQDNQFHGKWYVVGQAGNYILREDKDPVKMWATIYELKEDKSYDVTEVSFGPKKCNYRIWTFVPGSQPGEFTLGGIKSLPGGTSTLVRVVSTNYNQHAMVFFKHVLQNREFFEITLYGRTKELTSELKENFIRFSKSLGLPENHIVFPVPIDQCIDGSAWSHPQFEK | 0.169
hNGAL lipocalin mutein SEQ ID NO: 7 (designed binder, Mutein of mature hNGAL; Biotinylated with NHS-PEG4-Biotin for the SPR assay) QDSTSDLIPAPPLSKVPLQQNFQDNQFHGKWYVVGHAGNYILREDKDPEKMWATIYELKEDKSYDVTEVSFGPKKCNYRIWTFVPGSQPGEFTLGGIKSPPGDTSTLVRVVSTNYNQHAMVFFKHVLQNREFFEITLYGRTKELTSELKENFIRFSKSLGLPENHIVFPVPIDQCIDGSAWSHPQFEK | 0.199

Given hNGAL lipocalin mutein SEQ ID NO: 1 (designed binder, Mutein of mature hNGAL) QDSTSDLIPAPPLSKVPLQQNFQDNQFHGKWYVVGQAGNYILREDKDPGKMWATIYELKEDKSYNVTGVSFGPKKCNYTIWTFVPGSQPGEFTLGGIKSPPGGTSTLVRVVSTNYNQHAMVFFKHVLQNREFFEITLYGRTKELTSELKENFIRFSKSLGLPENHIVFPVPIDQCIDGSAWSHPQFEK , state its recorded IC50 mean, LEC proliferation assay (CellTiter-Glo). 2.25
